The origin of these recorded values is ChEMBL document CHEMBL2417367.

- Tested on: MDA-MB-231
- METHOD_SUMMARY: Cytotoxicity against human MDA-MB-231 cells after 72 hrs by MTT assay
- Format: functional, cell-based
- CONDITION_NOTES: MDA-MB-231, 72 h
Kindly apply the following: MET if IC50 is less than 1000 nM, NOT MET in every other case.

Criterion: IC50 strictly below 1000 nM. Is it met by COc1cc2c(Oc3ccc(NC(=O)N/N=C/c4ccccc4F)cc3F)ccnc2cc1OCCCN1CCCCC1 ?
MET

# TODO verify IC50 < 1000 nM strictly for this molecule: COc1cc2c(Oc3ccc(NC(=O)N/N=C/c4ccc(F)c(F)c4)cc3F)ccnc2cc1OCCCN1CCCCC1
NOT MET

In the record for COc1cc2c(Oc3ccc(NC(=O)N/N=C/c4ccc(F)cc4)cc3F)ccnc2cc1OCCCN1CCOCC1 , is IC50 less than 1000 nM?
NOT MET

Is IC50 strictly under 1000 nM for the entry COc1cc2c(Oc3ccc(NC(=S)N/N=C/c4ccccc4[N+](=O)[O-])cc3F)ccnc2cc1OCCCN1CCCCC1 ?
MET

Consider the molecule COc1cc2c(Oc3ccc(NC(=O)N/N=C/c4ccccc4C#N)cc3F)ccnc2cc1OCCCN1CCCCC1 . Is its IC50 strictly less than 1000 nM?
MET

State whether 1000 nM exceeds IC50 recorded for COc1cc2c(Oc3ccc(NC(=O)N/N=C/c4ccccc4)cc3F)ccnc2cc1OCCCN1CCC(C)CC1 .
MET

Answer whether the molecule COc1cc2c(Oc3ccc(NC(=O)N/N=C/c4ccccc4C(F)(F)F)cc3F)ccnc2cc1OCCCN1CCCCC1 has IC50 strictly less than 1000 nM
MET

Please state whether IC50 is below 1000 nM for COc1cc2c(Oc3ccc(NC(=O)N/N=C(\C)c4ccccc4)cc3F)ccnc2cc1OCCCN1CCCCC1
MET

Please determine if COc1cc2c(Oc3ccc(NC(=O)N/N=C/c4ccc(F)cc4)cc3F)ccnc2cc1OCCCN1CCC(C)CC1 is below 1000 nM in terms of IC50.
MET

Is 1000 nM strictly greater than the molecule's reported IC50? molecule: COc1cc2c(Oc3ccc(NC(=O)N/N=C/c4ccc(Cl)cc4)cc3F)ccnc2cc1OCCCN1CCCCC1
MET

Strictly below 1000 nM: is that where IC50 of COc1cc2c(Oc3ccc(NC(=O)N/N=C/c4ccc(OC(F)(F)F)cc4)cc3F)ccnc2cc1OCCCN1CCOCC1 sits?
NOT MET

Does the reported IC50 of COc1cc2c(Oc3ccc(NC(=O)N/N=C/c4ccc(C(F)(F)F)cc4)cc3F)ccnc2cc1OCCCN1CCOCC1 stay below 1000 nM?
NOT MET

Is IC50 of COc1cc2c(Oc3ccc(NC(=S)N/N=C/c4ccc(F)cc4F)cc3F)ccnc2cc1OCCCN1CCCCC1 strictly below 1000 nM?
MET

IC50 under 1000 nM? Item: COc1cc2c(Oc3ccc(NC(=O)N/N=C/c4ccc(Cl)cc4)cc3F)ccnc2cc1OCCCN1CCCC1
NOT MET

Report whether reported IC50 is lower than 1000 nM (strictly) for COc1cc2c(Oc3ccc(NC(=O)N/N=C/c4ccccc4)cc3F)ccnc2cc1OCCCN1CCCC1
MET
